# system-tested: Guanine nucleotide-binding protein G(q) subunit alpha (Homo sapiens)
# Sequence (P50148 whole entry): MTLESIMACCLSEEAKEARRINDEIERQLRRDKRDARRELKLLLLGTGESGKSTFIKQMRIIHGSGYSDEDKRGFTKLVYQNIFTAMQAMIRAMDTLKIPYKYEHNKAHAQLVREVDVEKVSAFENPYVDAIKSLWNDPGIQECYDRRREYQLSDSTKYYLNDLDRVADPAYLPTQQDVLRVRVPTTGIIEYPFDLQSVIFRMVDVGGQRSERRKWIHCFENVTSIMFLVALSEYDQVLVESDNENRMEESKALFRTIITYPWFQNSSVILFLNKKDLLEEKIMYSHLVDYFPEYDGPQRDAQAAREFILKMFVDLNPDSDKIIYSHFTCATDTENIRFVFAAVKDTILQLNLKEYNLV
# assay-text: Antagonist activity at hUII-activated RLucII-tagged Galpha-q (unknown origin) expressed in HEK293 cells co-expressing human UT/GFP10-tagged G-gamma by BRET assay (reference value: 8.26 +/- 0.09)
# Assay type: cell-based
API: label(entry) gives yes (1) if the entry's EC50 is strictly smaller than 7 nM; on equality or larger values it gives no (0).

| sample-smiles | system-tested | assigned-category |
| --- | --- | --- |
| COc1ccc(/C=C/C2=NN(CCCCN)C(=O)N(Cc3ccc(-c4ccccc4)cc3)c3cc(C(=O)NCc4ccccc4)ccc32)cc1 | Guanine nucleotide-binding protein G(q) subunit alpha (Homo sapiens) | no (0) |
| NCCCCN1N=C(CCc2ccc(O)cc2)c2ccc(C(=O)NCCCc3ccccc3)cc2N(Cc2ccc(-c3ccccc3)cc2)C1=O | Guanine nucleotide-binding protein G(q) subunit alpha (Homo sapiens) | yes (1) |
| CN(Cc1ccccc1)C(=O)c1ccc2c(c1)N(Cc1ccc(-c3ccccc3)cc1)C(=O)N(CCCCN)N=C2CCc1ccc(O)cc1 | Guanine nucleotide-binding protein G(q) subunit alpha (Homo sapiens) | no (0) |

---

List of Emax values.
# system-tested: Beta-arrestin-1 (Homo sapiens)
# Sequence (P49407 whole entry): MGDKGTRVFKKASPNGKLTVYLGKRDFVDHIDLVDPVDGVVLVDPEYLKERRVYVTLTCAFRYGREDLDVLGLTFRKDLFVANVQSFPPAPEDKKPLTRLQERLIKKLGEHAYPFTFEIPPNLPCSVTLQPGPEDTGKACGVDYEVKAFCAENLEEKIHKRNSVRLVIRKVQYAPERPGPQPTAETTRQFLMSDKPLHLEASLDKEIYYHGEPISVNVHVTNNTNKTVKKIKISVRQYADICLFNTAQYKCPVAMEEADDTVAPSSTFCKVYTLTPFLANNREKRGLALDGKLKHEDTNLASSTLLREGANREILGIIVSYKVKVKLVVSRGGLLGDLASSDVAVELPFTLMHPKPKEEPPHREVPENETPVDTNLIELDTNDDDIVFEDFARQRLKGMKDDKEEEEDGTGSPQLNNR
# assay-text: Agonist activity at RLucII/GFP10-tagged beta-arrestin-1 (unknown origin) expressed in HEK293 cells co-expressing human UT assessed as beta-arrestin recruitment at 10^-5 M by BRET assay relative to hUII
# Type: cell-based
# condition-summary: filed as agonist, dose 1.0 10^-5M

| sample-smiles | scale-unit | Emax |
| --- | --- | --- |
| NCCCCN1N=C(/C=C/c2ccc(O)cc2)c2ccc(C(=O)NCC(c3ccccc3)c3ccccc3)cc2N(Cc2ccc(-c3ccccc3)cc2)C1=O | % | 76 |
| CN(Cc1ccccc1)C(=O)c1ccc2c(c1)N(Cc1ccc(-c3ccccc3)cc1)C(=O)N(CCCCN)N=C2CCc1ccc(O)cc1 | % | 194 |
| NCCCCN1N=C(/C=C/c2ccc(O)cc2)c2ccc(C(=O)NCc3ccccc3)cc2N(Cc2ccc(-c3ccccc3)cc2)C1=O | % | 275 |
| NCCCCN1N=C(/C=C/c2ccc(O)cc2)c2ccc(C(=O)NCCCc3ccccc3)cc2N(Cc2ccc(-c3ccccc3)cc2)C1=O | % | 108 |
| COc1ccc(/C=C/C2=NN(CCCCN)C(=O)N(Cc3ccc(-c4ccccc4)cc3)c3cc(C(=O)NCCOc4ccccc4)ccc32)cc1 | % | 78 |
| NCCCCN1N=C(CCc2ccc(O)cc2)c2ccc(C(=O)NCCCc3ccccc3)cc2N(Cc2ccc(-c3ccccc3)cc2)C1=O | % | 165 |
| COc1ccc(/C=C/C2=NN(CCCCN)C(=O)N(Cc3ccc(-c4ccccc4)cc3)c3cc(C(=O)NCCCc4ccccc4)ccc32)cc1 | % | 98 |

---

Property: EC50; scope: individual compounds
# Test system: Aorta
# assay-text: Ex vivo modulatory effect on URP-induced contractile activity in Sprague-Dawley rat aortic ring (reference value: 8.06 +/- 0.27)
# Assay type: functional, tissue-based

| sample-smiles | EC50 / nM |
| --- | --- |
| NCCCCN1N=C(CCc2ccc(O)cc2)c2ccc(C(=O)NCCOc3ccccc3)cc2N(Cc2ccc(-c3ccccc3)cc2)C1=O | 16.2 |
| NCCCCN1N=C(/C=C/c2ccc(O)cc2)c2ccc(C(=O)NCc3ccccc3)cc2N(Cc2ccc(-c3ccccc3)cc2)C1=O | 13.5 |
| NCCCCN1N=C(CCc2ccc(O)cc2)c2ccc(C(=O)NCCCc3ccccc3)cc2N(Cc2ccc(-c3ccccc3)cc2)C1=O | 4.07 |
| CN(Cc1ccccc1)C(=O)c1ccc2c(c1)N(Cc1ccc(-c3ccccc3)cc1)C(=O)N(CCCCN)N=C2/C=C/c1ccc(O)cc1 | 3.31 |
| COc1ccc(/C=C/C2=NN(CCCCN)C(=O)N(Cc3ccc(-c4ccccc4)cc3)c3cc(C(=O)NCc4ccccc4)ccc32)cc1 | 8.13 |
| COc1ccc(/C=C/C2=NN(CCCCN)C(=O)N(Cc3ccc(-c4ccccc4)cc3)c3cc(C(=O)NCCCc4ccccc4)ccc32)cc1 | 3.72 |
| NCCCCN1N=C(/C=C/c2ccc(O)cc2)c2ccc(C(=O)NCC(c3ccccc3)c3ccccc3)cc2N(Cc2ccc(-c3ccccc3)cc2)C1=O | 44.7 |
| CN(Cc1ccccc1)C(=O)c1ccc2c(c1)N(Cc1ccc(-c3ccccc3)cc1)C(=O)N(CCCCN)N=C2CCc1ccc(O)cc1 | 43.7 |
| NCCCCN1N=C(/C=C/c2ccc(O)cc2)c2ccc(C(=O)NCCCc3ccccc3)cc2N(Cc2ccc(-c3ccccc3)cc2)C1=O | 1.55 |

---

# system-tested: Beta-arrestin-1 (Homo sapiens)
# assay-text: Agonist activity at RLucII/GFP10-tagged beta-arrestin-1 (unknown origin) expressed in HEK293 cells co-expressing human UT assessed as beta-arrestin recruitment at 10^-5 M by BRET assay relative to hUII
# Format: cell-based
# condition-summary: filed as agonist, dose 1.0 10^-5M
measure-name: Emax (%)

| sample-smiles | measure-name | data-value |
| --- | --- | --- |
| CN(Cc1ccccc1)C(=O)c1ccc2c(c1)N(Cc1ccc(-c3ccccc3)cc1)C(=O)N(CCCCN)N=C2/C=C/c1ccc(O)cc1 | Emax | 82 |
| NCCCCN1N=C(CCc2ccc(O)cc2)c2ccc(C(=O)NCCOc3ccccc3)cc2N(Cc2ccc(-c3ccccc3)cc2)C1=O | Emax | 198 |
| COc1ccc(/C=C/C2=NN(CCCCN)C(=O)N(Cc3ccc(-c4ccccc4)cc3)c3cc(C(=O)NCc4ccccc4)ccc32)cc1 | Emax | 98 |

---

# assay-text: Antagonist activity at hUII-activated RLucII-tagged Galpha-i (unknown origin) expressed in HEK293 cells co-expressing human UT/GFP10-tagged G-gamma by BRET assay (reference value: 7.41 +/- 0.15)
# Assay type: cell-based
pEC50: −log10 of the molar value.
Reported pEC50 is given for each of the following molecules.
measure-name: pEC50

| sample-smiles | measure-name | data-value |
| --- | --- | --- |
| COc1ccc(/C=C/C2=NN(CCCCN)C(=O)N(Cc3ccc(-c4ccccc4)cc3)c3cc(C(=O)NCc4ccccc4)ccc32)cc1 | pEC50 | 7.93 |
| NCCCCN1N=C(/C=C/c2ccc(O)cc2)c2ccc(C(=O)NCC(c3ccccc3)c3ccccc3)cc2N(Cc2ccc(-c3ccccc3)cc2)C1=O | pEC50 | 7.27 |
| CN(Cc1ccccc1)C(=O)c1ccc2c(c1)N(Cc1ccc(-c3ccccc3)cc1)C(=O)N(CCCCN)N=C2CCc1ccc(O)cc1 | pEC50 | 7.38 |

---

# system-tested: Guanine nucleotide-binding protein G(q) subunit alpha (Homo sapiens)
# Sequence (P50148 whole entry): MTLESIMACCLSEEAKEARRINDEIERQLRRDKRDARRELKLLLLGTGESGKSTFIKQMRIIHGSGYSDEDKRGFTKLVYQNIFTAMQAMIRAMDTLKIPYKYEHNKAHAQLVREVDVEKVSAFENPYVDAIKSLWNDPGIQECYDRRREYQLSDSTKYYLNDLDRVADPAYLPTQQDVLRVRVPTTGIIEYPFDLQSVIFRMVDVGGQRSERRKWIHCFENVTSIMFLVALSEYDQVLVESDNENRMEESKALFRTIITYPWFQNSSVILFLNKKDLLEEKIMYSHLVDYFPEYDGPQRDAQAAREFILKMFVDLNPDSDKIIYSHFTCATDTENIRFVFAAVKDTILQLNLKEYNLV
# assay-text: Agonist activity at RLucII-tagged Galpha-q (unknown origin) expressed in HEK293 cells co-expressing human UT/GFP10-tagged G-gamma assessed as activation of Galpha-q by BRET assay
# Type: cell-based
pEC50: −log10 of the molar value.
measure-name: pEC50

| sample-smiles | system-tested | measure-name | data-value |
| --- | --- | --- | --- |
| NCCCCN1N=C(/C=C/c2ccc(O)cc2)c2ccc(C(=O)NCCCc3ccccc3)cc2N(Cc2ccc(-c3ccccc3)cc2)C1=O | Guanine nucleotide-binding protein G(q) subunit alpha (Homo sapiens) | pEC50 | < 5.00 |
| CN(Cc1ccccc1)C(=O)c1ccc2c(c1)N(Cc1ccc(-c3ccccc3)cc1)C(=O)N(CCCCN)N=C2/C=C/c1ccc(O)cc1 | Guanine nucleotide-binding protein G(q) subunit alpha (Homo sapiens) | pEC50 | < 5.00 |
| CC(C)[C@H](NC(=O)[C@@H]1CSSC[C@H](NC(=O)[C@H](CC(=O)O)NC(=O)[C@@H]2CCCN2C(=O)[C@@H](NC(=O)[C@@H](N)CCC(=O)O)[C@@H](C)O)C(=O)N[C@@H](Cc2ccccc2)C(=O)N[C@@H](Cc2c[nH]c3ccccc23)C(=O)N[C@@H](CCCCN)C(=O)N[C@@H](Cc2ccc(O)cc2)C(=O)N1)C(=O)O | Guanine nucleotide-binding protein G(q) subunit alpha (Homo sapiens) | pEC50 | 7.86 |
